System: RXRa DBDmut IVT, anti-RXR (DBD mutation: RXRa K156A/R161A, NR concentration 90 nM)
Assay: PBM binding z-score (relative to random genomic background probes); higher = stronger binding; sequences stand for … in GC…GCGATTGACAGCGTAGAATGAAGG
Classify by measured PBM binding z-score: 1 if it is equal to or exceeds 0.6, -1 if it is smaller.

>  <chain>
GCGATTGGGGCAAAGCAGGTTACCATAAGGTTGG

>  <label>
-1

$$$$
>  <chain>
AGAATGAGGTTATTAAGATCAGGGTATTGCGGTC

>  <label>
1

$$$$
>  <chain>
ATCTCTCGGTAACCAAGTTCAGTGAATGCCGAAC

>  <label>
1

$$$$
>  <chain>
TCTTGAAGATCAATAGAGGTTAAGAAAGTGCGCT

>  <label>
1

$$$$
>  <chain>
AGAATGCGGTTATTAAGATCAGGGAATTGCGGTC

>  <label>
-1

$$$$
>  <chain>
ATCTCTAGGTAAGGTTCAGTGAAAGATCGATAGA

>  <label>
1

$$$$
>  <chain>
ATCGAAAGGTAGAGGTGAGTATAGAGAAAGGGAA

>  <label>
-1

$$$$
>  <chain>
TCATATAGCTAAACAGGTGAAAGTCCGTAAGTTA

>  <label>
1

$$$$
>  <chain>
AGAACGAGGGCAGGCTGAGTTGATAGCAGAGTAG

>  <label>
1

$$$$
>  <chain>
GCGACTGGGGCATCAGCAGGTTACCAAAACTTAA

>  <label>
-1

$$$$
>  <chain>
CCTCGGAGGACAACAGTAGGTCAGAGCTGCCAGA

>  <label>
-1

$$$$
>  <chain>
GGAACGACGGCAAGTTGATAGCAGAGTTTGATGG

>  <label>
-1

$$$$
